Where a name gives a salt, the structure may show the parent alone.
Kindly state melting point for each of the entries shown.

CC1(C)CN(C2CCNCC2)c2ccc(S(=O)(=O)c3ccccc3)cc2O1 (as salt: hydrochloride)
284.9 to 296.3 °C

Take each entry in turn and give its melting point.
1. N=C(N)NC(=O)N1CCOc2cc(S(=O)(=O)c3ccccc3)ccc21 (as salt: hydrochloride)
2. NCCNC(=O)N1CCOc2ccc(S(=O)(=O)c3ccccc3)cc21
3. O=C(CC1=NCCN1)N1CCOc2ccc(S(=O)(=O)c3ccccc3)cc21
4. O=S(=O)(c1ccccc1)c1ccc2c(c1)OCCN2C1CCNC1 (centres unmarked) (as salt: hydrochloride)
5. NCCN1CCOc2cc(S(=O)(=O)c3ccccc3)ccc21 (as salt: HCl)
6. CN(C)CCCCN1C(=O)COc2cc(S(=O)(=O)c3ccccc3)ccc21 (as salt: HCl)
7. NCCNC(=O)N1CCOc2cc(S(=O)(=O)c3ccccc3)ccc21 (as salt: hydrochloride)
8. O=C1COc2cc(S(=O)(=O)c3ccccc3)ccc2N1CC1=NCCN1 (as salt: HCl)

1. 148.5 to 151.6 °C
2. 172.4 to 181.3 °C
3. 114 to 116.1 °C
4. 122.8 to 127.6 °C
5. 261 to 265.1 °C
6. 179 to 180 °C
7. 220.9 to 221.3 °C
8. 113.7 to 116 °C

Take each entry in turn and give its melting point.
1. O=S(=O)(c1ccccc1)c1ccc2c(c1)N(CC1=NCCN1)CCO2 (as salt: HCl)
2. O=C(CC1=NCCN1)N1CCOc2cc(S(=O)(=O)c3ccccc3)ccc21 (as salt: HCl)

114 to 116.1 °C
202.3 to 203.6 °C
